# ASSAYED_SYSTEM: Recombinant human cathepsin A (Homo sapiens)
# Construct: Recombinant human cathepsin A (residues 29-480, with a C-terminal 10-His tag); 10-His (C); purchased R&D Systems 1049-SE
# Sequence (P10619 29-312 limits assumed): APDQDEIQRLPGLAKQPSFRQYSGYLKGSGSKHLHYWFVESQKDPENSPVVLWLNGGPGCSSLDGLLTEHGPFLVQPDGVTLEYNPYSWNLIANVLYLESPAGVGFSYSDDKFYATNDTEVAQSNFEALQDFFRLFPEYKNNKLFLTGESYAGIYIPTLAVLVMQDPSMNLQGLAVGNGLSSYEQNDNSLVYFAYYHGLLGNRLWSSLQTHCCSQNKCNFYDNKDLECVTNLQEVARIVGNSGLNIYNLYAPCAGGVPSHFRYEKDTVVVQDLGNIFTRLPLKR
# Sequence (P10619 327-480 limits assumed): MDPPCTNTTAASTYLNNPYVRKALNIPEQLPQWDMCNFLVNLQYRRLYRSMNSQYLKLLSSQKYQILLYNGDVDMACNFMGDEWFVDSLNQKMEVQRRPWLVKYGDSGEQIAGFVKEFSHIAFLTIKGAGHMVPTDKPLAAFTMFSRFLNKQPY
# ASSAY_PROTOCOL: Cathepsin A inhibitory activity
# Assay type: biochemical
# ASSAY_CONDITIONS: read-out: Activity (2): Cathepsin A inhibitory activity (IC50 class)
ENDPOINT: IC50

compound="CCC(O)(CC)COc1cc(C(=O)N[C@@H](CC(=O)O)c2ccc(Cl)cc2Cl)nn1-c1ccccc1F [Example 762]" assayed_system="Recombinant human cathepsin A (Homo sapiens)" endpoint_value="< 100 nM"
compound="O=C(O)CC(NC(=O)c1cc(O)n(-c2ccccc2C(F)(F)F)n1)c1ccc(-c2ccc(F)cc2)cc1 (stereo not drawn) [Example 569]" assayed_system="Recombinant human cathepsin A (Homo sapiens)" endpoint_value="100 to 1000 nM"
compound="COc1cc(C(=O)N[C@@H](CC(=O)O)c2cccc(Cl)c2Cl)nn1-c1ccccc1F [Example 681]" assayed_system="Recombinant human cathepsin A (Homo sapiens)" endpoint_value="< 100 nM"
compound="COc1cc(C(=O)NC(CC(=O)O)c2ccc(F)cc2C)nn1-c1ccccc1F (stereo not drawn) [Example 677]" assayed_system="Recombinant human cathepsin A (Homo sapiens)" endpoint_value="< 100 nM"
compound="COc1cc(-c2ccccc2)ccc1C(CC(=O)O)NC(=O)c1cc(O)n(-c2ccccc2)n1 (stereo not drawn) [Example 545]" assayed_system="Recombinant human cathepsin A (Homo sapiens)" endpoint_value="1000 to 30000 nM"

Fill blank: measured IC50 of the compound CC(C)(C)C(=O)COc1cc(C(=O)N[C@@H](CC(=O)O)c2ccccc2Cl)nn1-c1ccccc1F [Example 777] is ____.
< 100 nM

Values compiled from patent US8664257B2.
